Biological target: RSV F protein of subtype B strain 18537, on virus (respiratory syncytial virus subtype B …, UniProt P13843 26-574)
Sequence (P13843 26-574): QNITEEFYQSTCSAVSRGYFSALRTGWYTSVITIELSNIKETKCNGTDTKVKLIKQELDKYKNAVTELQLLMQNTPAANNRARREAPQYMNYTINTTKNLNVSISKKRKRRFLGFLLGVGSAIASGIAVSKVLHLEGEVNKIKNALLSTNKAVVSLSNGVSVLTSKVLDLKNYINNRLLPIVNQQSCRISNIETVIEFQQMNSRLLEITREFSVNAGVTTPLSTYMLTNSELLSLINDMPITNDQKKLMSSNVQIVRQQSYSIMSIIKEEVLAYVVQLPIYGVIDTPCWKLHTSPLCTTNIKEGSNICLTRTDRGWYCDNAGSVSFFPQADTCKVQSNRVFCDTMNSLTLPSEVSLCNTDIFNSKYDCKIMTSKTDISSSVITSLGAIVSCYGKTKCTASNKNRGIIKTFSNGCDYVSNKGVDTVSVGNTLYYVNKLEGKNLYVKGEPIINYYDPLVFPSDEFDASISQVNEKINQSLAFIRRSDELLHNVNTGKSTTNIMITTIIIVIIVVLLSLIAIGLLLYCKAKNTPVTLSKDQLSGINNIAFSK
Experiment: cell-based or functional assay
property: Neut IC50 (ug/ml) subtype B (µg/mL)
// return numeric value only (unit: µg/mL, not printed)

Qu. Provide one value: measured Neut IC50 (ug/ml) subtype B of ADI-15622 (antibody, V domains shown, IgG; also called Antibody Number 187) VH: QVQLQESGGGLVQPGGSLRLSCSASGFTFSNYGMSWVRQAPGKGLEWVSGIGVSDGSTHYADSVKGRFIISRDNSKNMLSLQMSSLGVDDTAVYYCARIVIVGVLRFQEWLSSDGMDVWGQGTTVTVSS VL: DIVMTQTPSSVSASVGDRVTITCRASQAISGGLAWYQQKAGKAPKLLIYAASNLPSGVPSRFSGSGSGTDFTLTISSLQPEDFATYYCQQANSFPFTFGQGTRLEIK
Ans. 1.37
